assay_system: ribosomal protein bL12 (Escherichia coli, UniProt P0A7K2)
Sequence (P0A7K2 2-121): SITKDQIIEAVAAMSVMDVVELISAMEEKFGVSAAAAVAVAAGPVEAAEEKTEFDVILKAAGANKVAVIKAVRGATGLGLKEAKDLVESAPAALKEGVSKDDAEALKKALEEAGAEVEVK
pKd: −log10 of the molar value.
quantity_name: pKd

query_smiles | quantity_name | numeric_value
O=C(Nc1nc(NC(=O)c2ccco2)n(-c2ccccc2)n1)c1ccccc1 | pKd | 5.10

====

assay_system: ribosomal protein bL12 (Mycobacterium tuberculosis)
Sequence (P9WHE3 whole entry): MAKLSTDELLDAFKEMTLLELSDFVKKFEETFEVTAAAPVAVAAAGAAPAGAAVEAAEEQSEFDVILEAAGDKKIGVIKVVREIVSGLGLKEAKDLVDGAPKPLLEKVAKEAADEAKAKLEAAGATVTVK
pKd: −log10 of the molar value.

compound | pKd
O=C(Nc1nc(NC(=O)c2ccco2)n(-c2ccccc2)n1)c1ccccc1 [KKL-1005] | 5.40
